# Tested on: human mesenchymal stem cells (MSCs)
# MEASUREMENT_NOTES: cells
# CONDITION_DESCRIPTION: Homo sapiens, Mesenchymal stem cells, 48 h, read-out: IC50 (normal; MCSs)
MEASURED_ENDPOINT: IC50 (µM)

1) CC(C)C[C@H](NC(=O)[C@H](Cc1ccccc1)NC(=O)c1cnccn1)B(O)O [Bortezomib, reference compound]: 0.0794

* * *

Attribute: inhibition at 0.01 µM
# TARGET_UNDER_TEST: GADD45β/MKK7 complex (Homo sapiens)
# Construct: Full-length human (h)MKK7 was expressed as a protein fused to an N-terminal GST tag (GST-MKK7); made in house
# Sequence (O14733 whole entry, the tested form may be a part, one chain of several): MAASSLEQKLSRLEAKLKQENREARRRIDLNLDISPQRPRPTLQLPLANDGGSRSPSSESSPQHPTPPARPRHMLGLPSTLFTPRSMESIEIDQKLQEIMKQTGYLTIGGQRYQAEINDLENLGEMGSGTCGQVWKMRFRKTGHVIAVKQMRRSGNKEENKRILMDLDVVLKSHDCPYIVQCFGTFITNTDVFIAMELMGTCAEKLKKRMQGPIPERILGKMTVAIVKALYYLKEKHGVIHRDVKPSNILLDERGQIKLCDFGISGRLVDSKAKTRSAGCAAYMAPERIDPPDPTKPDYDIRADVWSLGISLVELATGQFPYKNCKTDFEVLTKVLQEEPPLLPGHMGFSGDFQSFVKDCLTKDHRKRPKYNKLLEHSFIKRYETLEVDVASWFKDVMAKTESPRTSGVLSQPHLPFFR
# MEASUREMENT_NOTES: ELISA GADD45β/MKK7 competition assay
# Format: binding
# CONDITION_DESCRIPTION: read-out: % inhibition (ELISA)
Where a SMILES comes first, the peptide text is derived from it. [ ]: non-standard residue; d: D form. The star is where a group is joined. Benzoyl(3-OH,4-OMe) = COc1ccc(C(=O)*)cc1O
MEASURED_ENDPOINT: inhibition at 0.01 µM

1) NC(=O)CC[C@@H](NC(=O)[C@@H](Cc1c[nH]cn1)NC(=O)[C@@H](CC(=O)O)NC(=O)[C@@H](Cc1ccc(O)cc1)NC(=O)c1ccccc1)C(N)=O [Benzoyl-YDHQ-NH2]: 1%
2) COc1ccc(C(=O)N[C@H](Cc2ccc(O)cc2)C(=O)N[C@H](CC(=O)O)C(=O)N[C@H](Cc2c[nH]cn2)C(=O)N[C@H](CCC(N)=O)C(N)=O)cc1O ({Benzoyl(3-OH,4-OMe)}-[dY][dD][dH][dQ]-NH2): 7%
3) N=C(N)NCCC[C@@H](NC(=O)[C@@H](CCC(=O)O)NC(=O)[C@@H](Cc1ccc(O)cc1)NC(=O)c1ccccc1)C(=O)N[C@H](Cc1ccccc1)C(N)=O [Benzoyl-YERF-NH2]: 24%
